The following molecules are shown together with reported MRT values.
- assay info: In vivo pharmacokinetics after intratracheal instillation
- Parameters: species or system mouse
- run parameters: male, CD1, mouse, inhaled or intranasal, 0.5 mg kg^−1; mice, intratracheal, lung tissue; read-out: MRT lung
Please state the figure in h; there is no need to write the unit.

test smiles | unit | MRT
NC[C@H]1O[C@H](O[C@H]2[C@H](O)[C@@H](O[C@H]3O[C@H](CO)[C@@H](O)[C@H](N)[C@H]3O)[C@H](N)C[C@@H]2N)[C@H](N)C[C@@H]1O | h | 1.94

Now take the following molecule into account.
[Q] Read off the recorded MRT for FC(F)(F)c1cc(NCc2cn(-c3ccc(Oc4ccccc4)cc3)nn2)ccn1
[A] 1.27

The origin of these recorded values is paper PMC8224453.
